molecular target: UniProt Q96PF2; experiment: radiometric filter-binding kinase assay, Kinase HotSpot; conditions: compound 0.5 µM; ATP 10 µM
Sequence (Q96PF2 whole entry, looked up): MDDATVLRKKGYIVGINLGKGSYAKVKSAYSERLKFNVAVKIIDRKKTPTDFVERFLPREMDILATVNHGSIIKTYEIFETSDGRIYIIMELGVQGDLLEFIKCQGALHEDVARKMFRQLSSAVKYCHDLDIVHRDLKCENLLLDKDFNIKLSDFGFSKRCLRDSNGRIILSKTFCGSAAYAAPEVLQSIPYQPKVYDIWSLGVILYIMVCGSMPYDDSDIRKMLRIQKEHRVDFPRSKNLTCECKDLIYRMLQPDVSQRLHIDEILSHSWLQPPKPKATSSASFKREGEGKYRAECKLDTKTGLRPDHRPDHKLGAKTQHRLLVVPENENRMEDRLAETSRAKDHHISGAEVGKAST
Kindly supply the reported residual activity values for the records listed here.
Provide only the numeric value, understood in %.

Request: residual activity, test system UniProt Q96PF2, entry COc1ccc(COc2ccc(Cc3cnc(N)nc3N)cc2OC)cc1
109

Request: residual activity, test system UniProt Q96PF2, entry O=C1NC(=O)c2c1c1c3ccccc3n3c1c1c2c2ccccc2n1C1CCC3O1
87.1

Request: residual activity, test system UniProt Q96PF2, entry Cc1ccc(NC2=CC(=O)c3sc(C)nc3C2=O)cc1
98.3

Request: residual activity, test system UniProt Q96PF2, entry CC(=O)c1ccc(N2CCOCC2)cc1O
102

Request: residual activity, test system UniProt Q96PF2, entry O=C(Nc1cccc(Nc2nccc(Nc3cccc(C(F)(F)F)c3)n2)c1)C1CC1
97.1

Request: residual activity, test system UniProt Q96PF2, entry CNC(=O)c1cc(Oc2ccc(NC(=O)Nc3ccc(Cl)c(C(F)(F)F)c3)cc2)ccn1
102

Request: residual activity, test system UniProt Q96PF2, entry CCCC(=O)Oc1ccc2[nH]c(C(=O)c3cc4ccccc4[nH]3)cc2c1
78

Request: residual activity, test system UniProt Q96PF2, entry c1ccc(-c2n[nH]cc2-c2ccnc3ccccc23)nc1
83.5

Request: residual activity, test system UniProt Q96PF2, entry c1ccc(-c2n[nH]c3c2oc2ccccc23)cc1
97.6

Request: residual activity, test system UniProt Q96PF2, entry O=C1NC(=O)C(c2cn(CCCn3ccnc3)c3ccccc23)=C1Nc1ccccc1
97.9

Request: residual activity, test system UniProt Q96PF2, entry O=c1cc(N2CCOCC2)oc2c1ccc1ccccc12
100

Request: residual activity, test system UniProt Q96PF2, entry CNc1cc2c(Nc3cccc(Br)c3)ncnc2cn1
87.2

Request: residual activity, test system UniProt Q96PF2, entry CC[n+]1c(/C=C/N(C)c2ccccc2)n(-c2ccccc2)c2ccc(-c3nc4ccccc4s3)cc21
98.4

Request: residual activity, test system UniProt Q96PF2, entry Nc1ncnc2c1c(-c1ccc(Oc3ccccc3)cc1)cn2C1CCCC1
92.1

Request: residual activity, test system UniProt Q96PF2, entry CCN(CC)CCNC(=O)c1c(C)[nH]c(/C=C2\C(=O)Nc3ccc(Cl)cc32)c1C
66.9

Request: residual activity, test system UniProt Q96PF2, entry CO[C@H]1CC2CC[C@@H](C)[C@@](O)(O2)C(=O)C(=O)N2CCCC[C@H]2C(=O)OC([C@H](C)C[C@@H]2CC[C@@H](O)[C@H](OC)C2)CC(=O)[C@H](C)/C=C(\C)[C@@H](O)[C@@H](OC)C(=O)[C@H](C)C[C@H](C)/C=C/C=C/C=C/1C (stereo not given in full)
99.8

Request: residual activity, test system UniProt Q96PF2, entry Cc1ccc(S(=O)(=O)/C=C/C#N)cc1
103

Request: residual activity, test system UniProt Q96PF2, entry COc1cc2ncnc(Nc3cccc(Cl)c3)c2cc1OC
94.8

Request: residual activity, test system UniProt Q96PF2, entry CC(C)N(CCC(=O)c1ccc2ccccc2c1)Cc1ccccc1
100

Request: residual activity, test system UniProt Q96PF2, entry Cc1[nH]c(/C=C2\C(=O)Nc3ccc(S(=O)(=O)N(C)c4cccc(Cl)c4)cc32)c(C)c1C(=O)N1CCN(C)CC1
96.3

Request: residual activity, test system UniProt Q96PF2, entry O=S(=O)(c1cccc2cnccc12)N1CCCNCC1
80.2

Request: residual activity, test system UniProt Q96PF2, entry Nc1ncnc2[nH]nc(Nc3ccc(F)cc3)c12
90.8

Request: residual activity, test system UniProt Q96PF2, entry CC#CC(=O)Nc1cc2c(Nc3ccc(F)c(Cl)c3)ncnc2cn1
100

Request: residual activity, test system UniProt Q96PF2, entry O=C1Nc2ccc(Cl)cc2/C1=C/c1cc(Cl)c(O)c(Cl)c1
94.4

Request: residual activity, test system UniProt Q96PF2, entry CCN(CC)CCNC(=O)c1c(C)[nH]c(/C=C2\C(=O)Nc3ccc(F)cc32)c1C
72.9

Request: residual activity, test system UniProt Q96PF2, entry CCC(=O)Nc1ccc2ncnc(Nc3cccc(Br)c3)c2c1
82.8

Request: residual activity, test system UniProt Q96PF2, entry N#C/C(=C(/N)Sc1ccc(N)cc1)c1ccccc1C(F)(F)F
94.2

Request: residual activity, test system UniProt Q96PF2, entry Nc1cccc(-c2cc3c(Oc4cccc(O)c4)ncnc3[nH]2)c1
95.6

Request: residual activity, test system UniProt Q96PF2, entry CCN(CC)C(=O)c1ccc(Nc2nc(OCC3CCCCC3)c3nc[nH]c3n2)cc1
87.4

Request: residual activity, test system UniProt Q96PF2, entry Cc1ccc(Nc2nccc(N(C)c3ccc4c(C)n(C)nc4c3)n2)cc1S(N)(=O)=O
102

Request: residual activity, test system UniProt Q96PF2, entry CCOC(=O)c1c(C)[nH]c(/C=C2\C(=O)Nc3ccccc32)c1C
95.9

Request: residual activity, test system UniProt Q96PF2, entry O=C1NC(=O)/C(=C/c2ccc3c(c2)OC(F)(F)O3)S1
101

Request: residual activity, test system UniProt Q96PF2, entry N#CC(C#N)=C(N)/C(C#N)=C/c1ccc(O)cc1
94.6

Request: residual activity, test system UniProt Q96PF2, entry Nc1ccc2ncnc(NCCc3ccc(Oc4ccccc4)cc3)c2c1
94.5

Request: residual activity, test system UniProt Q96PF2, entry Oc1cccc(-c2nc(N3CCOCC3)c3oc4ncccc4c3n2)c1
102
